The reported numbers originate from patent EP4818158A1.

Listed below: pIC50 values for each entry.
experimental_target: human TSHR (Homo sapiens)
Construct: expressed in transfected cells
Sequence (P16473 21-764): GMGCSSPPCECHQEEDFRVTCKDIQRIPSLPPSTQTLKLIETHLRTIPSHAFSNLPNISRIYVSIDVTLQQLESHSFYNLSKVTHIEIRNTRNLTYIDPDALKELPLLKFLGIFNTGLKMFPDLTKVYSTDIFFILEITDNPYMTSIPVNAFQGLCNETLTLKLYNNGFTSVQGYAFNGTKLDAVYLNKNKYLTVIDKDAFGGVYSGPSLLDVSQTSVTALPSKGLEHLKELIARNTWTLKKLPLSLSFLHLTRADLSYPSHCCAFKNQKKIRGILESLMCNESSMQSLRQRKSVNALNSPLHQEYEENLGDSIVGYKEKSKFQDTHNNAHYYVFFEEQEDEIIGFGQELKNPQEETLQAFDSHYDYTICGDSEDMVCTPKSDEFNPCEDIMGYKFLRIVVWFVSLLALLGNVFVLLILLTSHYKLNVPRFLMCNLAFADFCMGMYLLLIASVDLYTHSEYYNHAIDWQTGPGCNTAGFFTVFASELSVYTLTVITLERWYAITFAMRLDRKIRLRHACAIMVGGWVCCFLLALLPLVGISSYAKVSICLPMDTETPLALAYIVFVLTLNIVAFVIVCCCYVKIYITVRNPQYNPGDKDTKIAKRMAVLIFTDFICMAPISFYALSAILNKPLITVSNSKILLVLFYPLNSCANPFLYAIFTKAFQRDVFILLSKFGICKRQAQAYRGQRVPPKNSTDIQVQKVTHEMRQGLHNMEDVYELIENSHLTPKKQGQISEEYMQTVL
assay_notes: Antagonist activity using TSH-induced cAMP generation in human TSHR-stably expressing CHO cells
Assay type: cell-based
experimental_conditions: human TSH 50 ng/mL
pIC50: −log10 of the molar value.

>  <compound>
CC(C)(C)OC(=O)Nc1ccc(-c2cccnc2CNC(N)=O)c(C(=O)N2CCOCC2)c1F [Example F-8]

>  <pIC50>
< 4.52

$$$$
>  <compound>
CC(C)(C)OC(=O)Nc1ccc(-c2cccnc2CCC(N)=O)c(C(=O)c2ccccc2F)c1F [Example E-3]

>  <pIC50>
> 6.52

$$$$
>  <compound>
CC1(OC(=O)Nc2ccc(-c3ccnnc3CNC(N)=O)c(Cc3ccccc3F)c2F)CC1 [Example C-3]

>  <pIC50>
4.52 to 6.52

$$$$
>  <compound>
Cc1ccnc(CNC(N)=O)c1-c1ccc(NC(=O)OC(C)(C)C)c(F)c1Cc1ccccc1 [Example A-9]

>  <pIC50>
4.52 to 6.52

$$$$
>  <compound>
N#CC1(COC(=O)Nc2ccc(-c3cccnc3CNC(N)=O)c(Cc3ccccc3F)c2F)CC1 [Example A-8]

>  <pIC50>
> 6.52

$$$$
>  <compound>
Cc1ccccc1C(=O)c1c(-c2cccnc2CNC(N)=O)ccc(NC(=O)OC(C)(C)C)c1F [Example E-1]

>  <pIC50>
> 6.52

$$$$
>  <compound>
NC(=O)NCc1ncccc1-c1ccc(NC(=O)OCC2CC2)c(F)c1Cc1ccccc1F [Example A-31]

>  <pIC50>
> 6.52

$$$$
>  <compound>
CC(C)(C)OC(=O)Nc1ccc(-c2ccnnc2CCC(N)=O)c(Cc2ccccc2F)c1F [Example C-4]

>  <pIC50>
> 6.52

$$$$
>  <compound>
CC(C)(C)OC(=O)Nc1ccc(-c2cccnc2CCC(N)=O)c(Oc2ccccc2F)c1F [Example B-6]

>  <pIC50>
> 6.52

$$$$
>  <compound>
NC(=O)NCc1ncccc1-c1ccc(NC(=O)OCc2ccccc2F)c(F)c1Cc1ccccc1F [Example A-36]

>  <pIC50>
> 6.52

$$$$
>  <compound>
CC(C)(CO)OC(=O)Nc1ccc(-c2cccnc2CNC(N)=O)c(Cc2ccccc2F)c1F [Example A-21]

>  <pIC50>
4.52 to 6.52

$$$$
>  <compound>
CC(C)(C)OC(=O)Nc1ccc(-c2ccnnc2CNC(N)=O)c(Oc2ccccc2F)c1F [Example D-1]

>  <pIC50>
4.52 to 6.52

$$$$
>  <compound>
NC(=O)NCc1ncccc1-c1ccc(NC(=O)NC2CCCC2)c(F)c1Cc1ccccc1F [Example G-8]

>  <pIC50>
> 6.52

$$$$
>  <compound>
NC(=O)NCc1nnccc1-c1ccc(NC(=O)OC2(C3CC3)CC2)c(F)c1Cc1ccccc1F [Example C-10]

>  <pIC50>
4.52 to 6.52

$$$$
>  <compound>
CC(C)(C)OC(=O)Nc1ccc(-c2cccnc2CNC(N)=O)c(Oc2ccccc2)c1F [Example B-1]

>  <pIC50>
> 6.52

$$$$
>  <compound>
C[C@H]1CN(Cc2c(-c3cccnc3CNC(N)=O)ccc(NC(=O)OC(C)(C)C)c2F)CCO1 [Example F-5]

>  <pIC50>
< 4.52

$$$$
>  <compound>
NC(=O)NCc1ncccc1-c1ccc(NC(=O)OCC2CCOC2)c(F)c1Cc1ccccc1F (centres unmarked) [Example A-35]

>  <pIC50>
> 6.52

$$$$
>  <compound>
NC(=O)NCc1ncccc1-c1ccc(NC(=O)OCC2CC(F)(F)C2)c(F)c1Oc1ccccc1F [Example B-4]

>  <pIC50>
> 6.52

$$$$
>  <compound>
CC(C)(C)OC(=O)Nc1ccc(-c2cccnc2CNC(N)=O)c(Cc2c(F)cccc2C#N)c1F [Example A-3]

>  <pIC50>
4.52 to 6.52

$$$$
>  <compound>
CC(C)(C)OC(=O)Nc1ccc(-c2cccnc2CNC(N)=O)c(Cc2ccccc2OCc2ccccc2)c1F [Example A-18]

>  <pIC50>
4.52 to 6.52

$$$$
>  <compound>
NC(=O)CCc1ncccc1-c1ccc(NC(=O)OCC2CC(F)(F)C2)c(F)c1C(=O)c1ccccc1F [Example E-7]

>  <pIC50>
> 6.52

$$$$
>  <compound>
CC(C)(COCc1ccccc1)OC(=O)Nc1ccc(-c2cccnc2CNC(N)=O)c(Cc2ccccc2F)c1F [Example A-20]

>  <pIC50>
> 6.52

$$$$
>  <compound>
C[C@H](OC(=O)Nc1ccc(-c2cccnc2CCC(N)=O)c(C(=O)c2ccccc2F)c1F)C1CC1 [Example E-5]

>  <pIC50>
> 6.52

$$$$
>  <compound>
CN(C)CCCOC(=O)Nc1ccc(-c2cccnc2CNC(N)=O)c(Cc2ccccc2F)c1F [Example A-30]

>  <pIC50>
4.52 to 6.52

$$$$
>  <compound>
CC(C)(C)OC(=O)Nc1ccc(-c2cccnc2CCC(N)=O)c(Cc2ncccc2F)c1F [Example F-2]

>  <pIC50>
4.52 to 6.52

$$$$
>  <compound>
CC1(C(=O)Nc2ccc(-c3cccnc3CNC(N)=O)c(Cc3ccccc3F)c2F)CC1 [Example G-1]

>  <pIC50>
4.52 to 6.52

$$$$
>  <compound>
NC(=O)NCc1ncccc1-c1ccc(NC(=O)OCC2(C(F)F)CC2)c(F)c1Cc1ccccc1F [Example A-34]

>  <pIC50>
> 6.52

$$$$
>  <compound>
NC(=O)NCc1ncccc1-c1ccc(NC(=O)OC2CC2)c(F)c1Cc1ccccc1F [Example A-26]

>  <pIC50>
4.52 to 6.52

$$$$
>  <compound>
NC(=O)NCc1ncccc1-c1ccc(NC(=O)C2CCCO2)c(F)c1Cc1ccccc1F (centres unmarked) [Example G-5]

>  <pIC50>
4.52 to 6.52

$$$$
>  <compound>
CC(C)(C)OC(=O)Nc1ccc(-c2cccnc2CNC(N)=O)c(C(=O)c2ccccc2C(F)(F)F)c1F [Example E-2]

>  <pIC50>
4.52 to 6.52

$$$$
>  <compound>
CC(O)c1ncccc1-c1ccc(NC(=O)OC(C)(C)C)cc1Oc1ccccc1 (centres unmarked) [Example B-7]

>  <pIC50>
< 4.52

$$$$
>  <compound>
CC(C)(C)OC(=O)Nc1ccc(-c2cccnc2CNC(N)=O)c(CN2CCOCC2)c1F [Example F-4]

>  <pIC50>
4.52 to 6.52

$$$$
